# Tested on: U2OS
# TEST SUMMARY: cell viability relative to DMSO; higher = less toxic
# CONDITION SUMMARY: 72 h; 1000 nM
Measured cell viability of individual entries
Please respond with the number in % and leave the unit unwritten.

Known cell viability results, listed for orientation:
COMPOUND	TEST TARGET	cell viability [%]
COc1ccc(OC)c2c(=S)c3ccccc3[nH]c12	U2OS	99.7
CCCC(=O)O[C@]1(C(=O)COC(C)=O)CC[C@H]2[C@@H]3C[C@H](F)C4=CC(=O)C=C[C@]4(C)[C@@]3(F)[C@@H](O)C[C@@]21C [difluprednate]	U2OS	94.1
CC(=O)O[C@]1(C(C)=O)CC[C@H]2[C@@H]3C=C(Cl)C4=CC(=O)CC[C@]4(C)[C@H]3CC[C@@]21C [chlormadinone-acetate]	U2OS	90.6
Cc1ccc2c(c1)Cc1c(C(=O)NN3CCCCC3)nn(-c3ccc(Cl)cc3Cl)c1-2	U2OS	101
CC(=N)NCc1cccc(CN)c1 [1400W]	U2OS	98
CO[C@H]1C[C@H](O[C@H]2CC[C@@]3(C)[C@H](CC[C@@H]4[C@@H]3CC[C@]3(C)[C@@H](C5=CC(=O)OC5)[C@@H](OC(C)=O)C[C@]43O)C2)O[C@@H](C)[C@@H]1O	U2OS	7.3

State the recorded cell viability for this entry: CC(=O)O[C@H]1C[C@@]2(C)[C@@H](C[C@@H](O)[C@H]3[C@@]4(C)CC[C@@H](O)[C@@H](C)[C@@H]4CC[C@@]32C)/C1=C(\CCC=C(C)C)C(=O)O
106

----------
# System: Vero E6
# TEST SUMMARY: relative viability EC50 (midpoint between 100% and the lowest measured viability); higher = less toxic
# CONDITION SUMMARY: 72 h
Each record here notes measured relative viability EC50.

Solved entries (count: 3):
COMPOUND	RESULT
Nc1cc(C(F)(F)F)c(-c2cc(N3CCOCC3)nc(N3CCOCC3)n2)cn1 [buparlisib]	1.22 µM
CC[C@H]1OC(=O)C[C@@H](O)[C@H](C)[C@@H](O[C@@H]2O[C@H](C)C[C@H](N(C)C)[C@H]2O)[C@@H](CC=O)C[C@@H](C)C(=O)/C=C/[C@]2(C)O[C@H]2[C@@H]1C [rosamicin]	> 10 µM
C[C@@H](C1=C(CCN(C)C)Cc2ccccc21)c1ccccn1 (racemic) [dimetindene]	> 10 µM

Please provide the recorded relative viability EC50 for C[Se]C[C@H](N)C(=O)O [Se-methylselenocysteine] , tested on Vero E6.
> 10 µM

Query relative viability EC50 on Vero E6 for O=c1c2ccccc2[se]n1-c1ccccc1 [ebselen]
> 10 µM

Recall the recorded relative viability EC50 for CO[C@H]1C[C@H](O[C@H]2CC[C@@]3(C)[C@H](CC[C@@H]4[C@@H]3CC[C@]3(C)[C@@H](C5=CC(=O)OC5)[C@@H](OC(C)=O)C[C@]43O)C2)O[C@@H](C)[C@@H]1O [oleandrin] with Vero E6 and state it.
0.0214 µM

----------
Quick list: cell viability per entry.
# Tested on: Vero E6
# TEST SUMMARY: cell viability relative to DMSO; higher = less toxic
# CONDITION SUMMARY: 72 h; 100 nM
Express the result in % but write the number alone.

# annotated cases, reported cell viability shown
COMPOUND	cell viability [%]
CCN(CCNC(=O)Nc1ccccc1Br)c1cccc(C)c1	105
N=C(Nc1ccccc1)c1cccs1	93.5
C=CC(=O)Nc1cccc(Oc2nc(Nc3ccc(N4CCN(C)CC4)cc3)nc3ccsc23)c1	96.7
Cc1cc2cc3c(C)cc(=O)oc3c(C)c2o1	99.5
CN[C@H]1C(=O)N[C@@H]2Cc3ccc(cc3)Oc3cc4cc(c3O[C@@H]3O[C@H](C(=O)O)[C@@H](O)[C@H](O)[C@H]3NC(=O)CCCCCCCCC(C)C)Oc3ccc(cc3Cl)[C@@H](O)[C@@H]3NC(=O)[C@H](NC(=O)[C@@H]4NC(=O)[C@@H](NC2=O)c2cc(cc(O)c2Cl)Oc2cc1ccc2O)c1ccc(O)c(c1)-c1c(O[C@H]2O[C@H](CO)[C@@H](O)[C@H](O)[C@@H]2O)cc(O)cc1[C@@H](C(=O)NCCCN(C)C)NC3=O	109

What value of cell viability has been reported for the following compound? CC(=O)N(OCc1ccccc1)[C@@H]1c2cc(C#N)ccc2OC(C)(C)[C@H]1O
94.2

I would be grateful if you could share the reported cell viability for CO/N=C(\C(=O)N[C@@H]1C(=O)N2C(C(=O)[O-])=C(C[N+]3(C)CCCC3)CS[C@H]12)c1csc(N)n1 [cefepime] .
104
